# IC50 values compiled below
target: UniProtKB P10721; assay: PathScan phospho c-kit (Tyr719) sandwich ELISA in SCF-stimulated M-07e cells (pKIT assay); format: cell-based; details: ELISA assay (values not marked *)
Sequence (P10721 26-976): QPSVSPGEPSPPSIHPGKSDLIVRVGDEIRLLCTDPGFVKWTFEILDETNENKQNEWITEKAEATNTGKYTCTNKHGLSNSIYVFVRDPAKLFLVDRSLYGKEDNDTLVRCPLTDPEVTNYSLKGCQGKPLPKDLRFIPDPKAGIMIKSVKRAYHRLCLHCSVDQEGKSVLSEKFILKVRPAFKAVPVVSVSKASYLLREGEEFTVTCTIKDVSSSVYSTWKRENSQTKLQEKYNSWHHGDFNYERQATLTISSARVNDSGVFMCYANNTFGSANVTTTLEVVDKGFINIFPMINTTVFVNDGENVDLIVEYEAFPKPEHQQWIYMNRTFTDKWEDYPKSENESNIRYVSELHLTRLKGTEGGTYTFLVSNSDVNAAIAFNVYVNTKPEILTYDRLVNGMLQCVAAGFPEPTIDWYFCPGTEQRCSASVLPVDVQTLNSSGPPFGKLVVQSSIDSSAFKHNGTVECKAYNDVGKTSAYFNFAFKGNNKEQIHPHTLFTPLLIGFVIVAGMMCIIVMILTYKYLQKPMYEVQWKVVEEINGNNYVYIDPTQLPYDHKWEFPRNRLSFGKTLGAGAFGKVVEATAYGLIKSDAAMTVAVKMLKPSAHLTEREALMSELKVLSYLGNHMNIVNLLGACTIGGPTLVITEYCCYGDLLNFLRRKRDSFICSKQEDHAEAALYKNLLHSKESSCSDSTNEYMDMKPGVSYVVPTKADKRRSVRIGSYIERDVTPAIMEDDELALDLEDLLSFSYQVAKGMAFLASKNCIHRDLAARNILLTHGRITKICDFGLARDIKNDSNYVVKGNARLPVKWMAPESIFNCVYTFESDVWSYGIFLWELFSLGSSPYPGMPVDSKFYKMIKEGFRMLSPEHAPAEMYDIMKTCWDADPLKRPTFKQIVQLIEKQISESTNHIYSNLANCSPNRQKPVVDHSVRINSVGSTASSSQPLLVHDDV
Number only, in nM; omit the unit.

Solved cases (5 shown):
molecule=COCCNc1ccn2ncc(C(=O)Nc3cc(-c4nnn(C5CC5)n4)ccc3C)c2c1 measure=IC50 result_units=nM value_reported=3.2
molecule=O=C(Nc1cc(-c2nnn(C3CN(CC(F)(F)F)C3)n2)ccc1Cl)c1cnn2ccccc12 measure=IC50 result_units=nM value_reported=8.7
molecule=COC(=O)N1CC(n2nnc(-c3ccc(C)c(NC(=O)c4cnn5ccc(NC[C@H](C)OC)cc45)c3)n2)C1 measure=IC50 result_units=nM value_reported=32.4
molecule=Cc1cc(F)c(-c2nnn(C3CC3)n2)cc1NC(=O)c1cnn2ccc(-c3cn(C[C@@H](O)C(C)(C)O)nc3C3CC3)cc12 measure=IC50 result_units=nM value_reported=0.4
molecule=COC(=O)N1CC(n2nnc(-c3ccc(C)c(NC(=O)c4cnn5ccc(N6CCO[C@H](CO)C6)cc45)c3)n2)C1 measure=IC50 result_units=nM value_reported=61.3

Request: Entry Cc1nn([C@H](C)[C@H](C)O)cc1-c1ccn2ncc(C(=O)Nc3cc(-c4nnn(C5CC5)n4)c(F)cc3Cl)c2c1 (single isomer, unassigned) : reported IC50 = ?
Result: 0.6

Request: Entry Cc1ccc(-c2nnn(C3CN(CC(F)(F)F)C3)n2)cc1NC(=O)c1cnn2ccccc12 : reported IC50 = ?
Result: 9.1

These entries and their values trace back to patent US20240262826A1.
